Measured Population Apoptotic (%) of individual entries
Test system: U2OS
Test: Multiplex assay against U2OS
Type: toxicity, cell-based
Details: human, 24 h, 10 µM, compound concentration 10 uM, replicate 1
assay_endpoint: Population Apoptotic (%)

Cc1ccc(NC(=O)Nc2cc(C(F)(F)F)ccc2F)cc1Nc1ccc2c(c1)NC(=O)/C2=C\c1ccc[nH]1 : 26
Cc1ccc(S(=O)(=O)NC2c3ccccc3Oc3ccccc32)cc1 : 71
CCCc1cc(C)[nH]c(=O)c1CNC(=O)c1cc(-c2ccc(N3CCN(C(C)C)CC3)nc2)cc2c1cnn2C(C)C : 88
Cl.NC[C@@H]1O[C@H](C23CC4CC(CC(C4)C2)C3)Cc2c1ccc(O)c2O : 76
NC(=O)c1ccc2nc(-c3ccc(C4(N)CCC4)cc3)c(-c3ccccc3)n2n1 : 33
c1ccc(-c2oc3ncnc(NC[C@@H]4CCCO4)c3c2-c2ccccc2)cc1 : 82
CC(C)c1cc(Nc2nc(N3CCC[C@H](N)C3)ncc2C(N)=O)cc(C(C)C)n1 : 74
Cc1c(Nc2ccc(S(=O)(=O)N3CCN(C)CC3)cc2F)nc2ccc(Nc3cnn(C4CC4)c3)cn2c1=O : 50

---

System: Fibroblast
Test: Multiplex assay against human fibroblast
Format: toxicity, cell-based
Details: 12 h, 1 µM, compound concentration 1 uM, replicate 1
assay_endpoint: Population Fragmented Nuclei (%)

CCCCN(CC)c1nc(C)nc2c1c(C)cn2-c1c(C)cc(C)cc1C.Cl : 23
N#CCNC(=O)c1ccc(-c2ccnc(Nc3ccc(N4CCOCC4)cc3)n2)cc1 : 26
NC(=O)c1ccc2nc(-c3ccc(C4(N)CCC4)cc3)c(-c3ccccc3)n2n1 : 53
CC(C)[C@H](CO)Nc1nc(Nc2cccc(Cl)c2)c2ncn(C(C)C)c2n1 : 30
C=CC(=O)Nc1cc(-n2c(=O)ccc3cnc4ccc(-c5ccc(NS(C)(=O)=O)cc5)cc4c32)ccc1C : 37
Cc1c(P(=S)(c2ccccc2)c2ccccc2)n2ccccc2[n+]1C/C=C/c1ccccc1.[Br-] : 26
CN1C(=O)[C@@H](NC(=O)c2cc3ccccc3[nH]2)N=C(c2ccccc2)c2ccccc21 [DEVAZEPIDE] : 21
Cc1ccc(NC(=O)Nc2cc(C(F)(F)F)ccc2F)cc1Nc1ccc2c(c1)NC(=O)/C2=C\c1ccc[nH]1 : 13
C[C@@H](Oc1cc(-n2cnc3ccc(CN4CCN(C)CC4)cc32)sc1C(N)=O)c1ccccc1C(F)(F)F : 30
CCOC(=O)CCNc1cc(N2CCc3ccccc3CC2)nc(-c2ccccn2)n1 : 22
Oc1cccc(-c2nc(N3CCOCC3)c3oc4ncccc4c3n2)c1 : 32
CN(c1cc(C(F)(F)F)nc(OCCC(=O)O)n1)c1cccc2c1CCC2 : 18
N#Cc1cccc(C(=O)Nc2cc(-c3ccccc3)nn2-c2ccccc2)c1 : 21
CCOc1ccn(-c2ccc(F)cc2)c(=O)c1C(=O)Nc1ccc(Oc2ccnc(N)c2Cl)c(F)c1 : 30
Cl.NC[C@@H]1O[C@H](C23CC4CC(CC(C4)C2)C3)Cc2c1ccc(O)c2O : 28
Cc1ccc(S(=O)(=O)NC2c3ccccc3Oc3ccccc32)cc1 : 25
Cc1c(Nc2ccc(S(=O)(=O)N3CCN(C)CC3)cc2F)nc2ccc(-c3cnn(C4CC4)c3)cn2c1=O : 29
CCCc1cc(C)[nH]c(=O)c1CNC(=O)c1cc(-c2ccc(N3CCN(C(C)C)CC3)nc2)cc2c1cnn2C(C)C : 26
